Reference for the values: paper PMC8162404

Please provide measured Kd for the entries that follow.
Measured on: S100B (Homo sapiens, UniProt P04271)
Construct: made in house; host or cells: Escherichia coli BL21(DE3)
Sequence (P04271 whole entry): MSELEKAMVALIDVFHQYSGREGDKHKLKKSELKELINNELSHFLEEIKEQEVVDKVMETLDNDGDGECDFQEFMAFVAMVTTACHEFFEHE
Assay explanation: Pull-down assay with immobilized protein and LSM libraries
Format: binding
Condition context: H12 library; 1:1 binding assumed; read-out: Surface mapping KD (apparent)
Number in µM, nothing else.

Req: State the recorded Kd for this entry: N=C(N)NCCC[C@@H](CC(=O)N[C@H]1CCC[C@@H]1C(=O)N[C@H]1CCC[C@@H]1C(N)=O)NC(=O)[C@H]1CCC[C@@H]1NC(=O)[C@H]1CCC[C@@H]1NC(=O)C[C@H](CCCNC(=N)N)NC(=O)[C@H]1CCC[C@@H]1NC(=O)[C@H]1CCC[C@@H]1N
Resp: 89

Req: I am curious: what Kd value has been reported for CSCC[C@@H](CC(=O)N[C@H]1CCC[C@@H]1C(=O)N[C@H]1CCC[C@@H]1C(=O)N[C@H](CC(=O)N[C@H]1CCC[C@@H]1C(=O)N[C@H]1CCC[C@@H]1C(N)=O)CC(C)C)NC(=O)[C@H]1CCC[C@@H]1NC(=O)[C@H]1CCC[C@@H]1N ?
Resp: 81

Req: I am curious: what Kd value has been reported for CSCC[C@@H](CC(=O)N[C@H]1CCC[C@@H]1C(=O)N[C@H]1CCC[C@@H]1C(=O)N[C@H](CC(=O)N[C@H]1CCC[C@@H]1C(=O)N[C@H]1CCC[C@@H]1C(N)=O)Cc1ccc(O)cc1)NC(=O)[C@H]1CCC[C@@H]1NC(=O)[C@H]1CCC[C@@H]1N ?
Resp: 102

Req: Return reported Kd; argument: CC(C)[C@@H](CC(=O)N[C@H]1CCC[C@@H]1C(=O)N[C@H]1CCC[C@@H]1C(=O)N[C@@H](CCCNC(=N)N)CC(=O)N[C@H]1CCC[C@@H]1C(=O)N[C@H]1CCC[C@@H]1C(N)=O)NC(=O)[C@H]1CCC[C@@H]1NC(=O)[C@H]1CCC[C@@H]1N
Resp: 118

====

Measured on: CaM (Bos taurus, UniProt P62157)
Construct: made in house; host or cells: E. coli BL21 (DE3)
Assay explanation: Competition pull-down with native ligand TRPV1-Ct15
Format: binding, bovine
Condition context: H14 library; competitor peptide 200 µM; read-out: Surface mapping KD (apparent), competition
Record form. Attribute: pKd. Fill in for each entry.
Scale: negative log10 of molar concentration, which is what pKd denotes.

Req: Could you share what pKd was measured for CC(C)[C@@H](CC(=O)N[C@H]1CCCC[C@@H]1C(N)=O)NC(=O)[C@H]1CCCC[C@@H]1NC(=O)[C@H]1CCCC[C@@H]1NC(=O)C[C@H](CCCNC(=N)N)NC(=O)[C@H]1CCCC[C@@H]1N , tested on CaM (Bos taurus, UniProt P62157)?
Resp: 3.66

Req: Param readout= pKd; system= CaM (Bos taurus, UniProt P62157); entry= CSCC[C@@H](CC(=O)N[C@H]1CCCC[C@@H]1C(N)=O)NC(=O)[C@H]1CCCC[C@@H]1NC(=O)[C@H]1CCCC[C@@H]1NC(=O)C[C@@H](NC(=O)[C@H]1CCCC[C@@H]1N)[C@@H](C)O ; returns value.
Resp: 3.95

Req: What value of pKd on CaM (Bos taurus, UniProt P62157) does NC(=O)C[C@@H](CC(=O)N[C@H]1CCCC[C@@H]1C(N)=O)NC(=O)[C@H]1CCCC[C@@H]1NC(=O)[C@H]1CCCC[C@@H]1NC(=O)C[C@H](CC(N)=O)NC(=O)[C@H]1CCCC[C@@H]1N have?
Resp: 3.54

Req: Can you look up pKd on CaM (Bos taurus, UniProt P62157) for N=C(N)NCCC[C@@H](CC(=O)N[C@H]1CCCC[C@@H]1C(=O)N[C@H]1CCCC[C@@H]1C(=O)N[C@H](CC(=O)N[C@H]1CCCC[C@@H]1C(N)=O)Cc1ccccc1)NC(=O)[C@H]1CCCC[C@@H]1N ?
Resp: 3.46

Req: # returns recorded pKd (system: CaM (Bos taurus, UniProt P62157)) for NC(=O)CC[C@@H](CC(=O)N[C@H]1CCCC[C@@H]1C(=O)N[C@H]1CCCC[C@@H]1C(=O)N[C@H](CC(=O)N[C@H]1CCCC[C@@H]1C(N)=O)Cc1ccc(O)cc1)NC(=O)[C@H]1CCCC[C@@H]1N
Resp: 3.46

Req: Lookup: pKd / CaM (Bos taurus, UniProt P62157) / CSCC[C@@H](CC(=O)N[C@H]1CCCC[C@@H]1C(N)=O)NC(=O)[C@H]1CCCC[C@@H]1NC(=O)[C@H]1CCCC[C@@H]1NC(=O)C[C@H](CCCCN)NC(=O)[C@H]1CCCC[C@@H]1N
Resp: 3.84

Req: Give recorded pKd with CaM (Bos taurus, UniProt P62157) for the following compound: CSCC[C@@H](CC(=O)N[C@H]1CCCC[C@@H]1C(=O)N[C@H]1CCCC[C@@H]1C(=O)N[C@H](CC(=O)N[C@H]1CCCC[C@@H]1C(N)=O)Cc1c[nH]c2ccccc12)NC(=O)[C@H]1CCCC[C@@H]1N
Resp: 3.68

====

Measured on: CaM (Bos taurus)
Construct: made in house; host or cells: E. coli BL21 (DE3)
Assay explanation: Pull-down assay with immobilized protein and LSM libraries
Format: binding, bovine
Condition context: H14 library; 1:2 stoichiometry assumed; read-out: Surface mapping KD (apparent)
Quantity: Kd (µM)
Express your answer in µM, writing the number without its unit.

Req: Item C[C@@H](O)[C@@H](CC(=O)N[C@H]1CCCC[C@@H]1C(=O)N[C@H]1CCCC[C@@H]1C(=O)N[C@@H](CO)CC(=O)N[C@H]1CCCC[C@@H]1C(N)=O)NC(=O)[C@H]1CCCC[C@@H]1N has what recorded Kd?
Resp: 71

Req: Requested read-out: Kd. Entry: N=C(N)NCCC[C@@H](CC(=O)N[C@H]1CCCC[C@@H]1C(=O)N[C@H]1CCCC[C@@H]1C(=O)N[C@@H](CC(N)=O)CC(=O)N[C@H]1CCCC[C@@H]1C(N)=O)NC(=O)[C@H]1CCCC[C@@H]1N
Resp: 185

Req: // Kd lookup, key: N=C(N)NCCC[C@@H](CC(=O)N[C@H]1CCCC[C@@H]1C(N)=O)NC(=O)[C@H]1CCCC[C@@H]1NC(=O)[C@H]1CCCC[C@@H]1NC(=O)C[C@H](CO)NC(=O)[C@H]1CCCC[C@@H]1N
Resp: 75

Req: Can you look up the measured Kd of NC(=O)[C@H]1CCCC[C@@H]1NC(=O)C[C@H](CCC(=O)O)NC(=O)[C@H]1CCCC[C@@H]1NC(=O)[C@H]1CCCC[C@@H]1NC(=O)C[C@H](Cc1ccccc1)NC(=O)[C@H]1CCCC[C@@H]1N for me?
Resp: 475

Req: Record request: Kd value, item CC[C@H](C)[C@@H](CC(=O)N[C@H]1CCCC[C@@H]1C(=O)N[C@H]1CCCC[C@@H]1C(=O)N[C@@H](CCCCN)CC(=O)N[C@H]1CCCC[C@@H]1C(N)=O)NC(=O)[C@H]1CCCC[C@@H]1N
Resp: 31

====

I'd appreciate it if you could supply Kd values for the items below.
Measured on: CaM (Bos taurus)
Construct: made in house; host or cells: E. coli BL21 (DE3)
Assay explanation: Pull-down assay with immobilized protein and LSM libraries
Assay type: binding, bovine
Condition context: H14 library; 1:2 stoichiometry assumed; read-out: Surface mapping KD (apparent)
Express it in µM; write the number only.

Req: Look up Kd: CC(C)C[C@@H](CC(=O)N[C@H]1CCCC[C@@H]1C(N)=O)NC(=O)[C@H]1CCCC[C@@H]1NC(=O)[C@H]1CCCC[C@@H]1NC(=O)C[C@H](CCCNC(=N)N)NC(=O)[C@H]1CCCC[C@@H]1N
Resp: 10

Req: Param item = NCCCC[C@@H](CC(=O)N[C@H]1CCCC[C@@H]1C(=O)N[C@H]1CCCC[C@@H]1C(=O)N[C@@H](CCC(N)=O)CC(=O)N[C@H]1CCCC[C@@H]1C(N)=O)NC(=O)[C@H]1CCCC[C@@H]1N ; retrieve measured Kd.
Resp: 307

Req: Endpoint output: Kd of NC(=O)CC[C@@H](CC(=O)N[C@H]1CCCC[C@@H]1C(N)=O)NC(=O)[C@H]1CCCC[C@@H]1NC(=O)[C@H]1CCCC[C@@H]1NC(=O)C[C@H](Cc1c[nH]c2ccccc12)NC(=O)[C@H]1CCCC[C@@H]1N . Value?
Resp: 16

Req: Data request, read-out Kd, for NCCCC[C@@H](CC(=O)N[C@H]1CCCC[C@@H]1C(N)=O)NC(=O)[C@H]1CCCC[C@@H]1NC(=O)[C@H]1CCCC[C@@H]1NC(=O)C[C@H](CO)NC(=O)[C@H]1CCCC[C@@H]1N
Resp: 91
